# ASSAY TARGET: Cytochrome P450 2C9 (Homo sapiens)
# MEASUREMENT DESCRIPTION: Cytochrome panel assay with activity outcomes
# PROTOCOL CONDITIONS: recombinant CYP, pro-luciferin dealkylation, luminescence, p450-cyp2c9; series mostly up to 57.1 µM
Screen size: about 16,000 compounds; about 4,000 (25%) were called active. Another 26% or so got no clear call; they are omitted. These entries were drawn from the full list.
MEASUREMENT NAME: AC50

>>> print(df.to_string())
                                 smiles_text  reported_measurement
 0  COc1cccc(/C=N\NC(=O)c2cc(OCC(F)(F)F)ccc2OCC(F)(F)F)c1              inactive
 1  CCCCCCCC/C=C\CCCCCCCC(=O)NCCc1ccc(O)c(O)c1      1.58 µM (active)
 2  CC(=O)c1ccc(OC(=O)C2c3ccccc3Oc3ccccc32)cc1      28.2 µM (active)
 3  CC[N+](C)(CC)CCOC(=O)C1c2ccccc2Oc2ccccc21              inactive
 4  CCOc1cc(CN2CCN(c3ccc(C(C)=O)cc3)CC2)ccc1OC              inactive
 5  Cc1ccc(/C=N\NC(=O)c2cc(OCC(F)(F)F)ccc2OCC(F)(F)F)cc1              inactive
 6         C[C@@](Cc1ccc(O)c(O)c1)(NN)C(=O)O              inactive
 7  Cc1ccc(C(=O)c2cn[nH]c2-c2cc(Cl)ccc2O)cc1      2.24 µM (active)
 8       Cc1ccc(NCCC(=O)c2ccc(Cl)c(Cl)c2)cc1              inactive
 9      COc1ccccc1CN1CCC2(CC1)CCN(C(C)=O)CC2              inactive
10  COc1ccc(/C=N/NC(=O)c2ccccc2)cc1CN1CCN(c2ccc(F)cc2)CC1      11.2 µM (active)

====

# ASSAY TARGET: Cytochrome P450 2C9 (Homo sapiens) (UniProt P11712)
# Sequence (P11712 whole entry, looked up): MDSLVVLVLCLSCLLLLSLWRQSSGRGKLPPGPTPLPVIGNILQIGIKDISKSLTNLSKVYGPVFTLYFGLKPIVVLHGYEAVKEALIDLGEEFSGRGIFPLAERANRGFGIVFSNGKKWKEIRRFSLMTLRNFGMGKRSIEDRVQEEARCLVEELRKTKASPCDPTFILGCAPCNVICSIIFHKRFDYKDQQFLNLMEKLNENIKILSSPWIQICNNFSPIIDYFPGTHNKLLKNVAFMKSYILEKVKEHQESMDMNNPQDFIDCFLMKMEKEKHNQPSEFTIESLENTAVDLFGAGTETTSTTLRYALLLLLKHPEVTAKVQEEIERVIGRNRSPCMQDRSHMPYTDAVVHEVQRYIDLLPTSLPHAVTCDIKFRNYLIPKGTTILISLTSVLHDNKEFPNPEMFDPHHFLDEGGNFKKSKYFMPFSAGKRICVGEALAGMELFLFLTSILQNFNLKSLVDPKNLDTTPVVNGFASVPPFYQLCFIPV
# MEASUREMENT DESCRIPTION: Cytochrome panel assay with activity outcomes; for activity, negative = inhibition: % is set by controls: 0 for no effect and ±100 for the full control effect
# PROTOCOL CONDITIONS: recombinant CYP, pro-luciferin dealkylation, luminescence, p450-cyp2c9; series mostly up to 57.1 µM
# Method: The P450 gene superfamily is involved in the metabolism and clearance of xenobiotics. This assay used various human CYP P450 isozymes to measure the dealkylation of various pro-luciferin substrates to luciferin. The luciferin is then measured by luminescence after the addition of a luciferase detection reagent. […] Inhibitors and some substrates limit the production of luciferin, and decrease measured luminescence. […] 8, Detection, 1 sec, ViewLux luminescent read […]
Screen size: about 16,000 compounds; about 4,000 (25%) were called active. Not shown: some 26% with an inconclusive outcome. These entries were drawn from the full list.
Below, each of the compounds is paired with its reported activity, negative = inhibition value.

SMILES TEXT	activity, negative = inhibition
N#CC1(Nc2ccc(-c3ccc(NC4(C#N)CCCC4)cc3)cc2)CCCC1	-5.08% [at 11.4 µM] (inactive)
O=S(=O)(C[C@H](O)C(Cl)(Cl)Cl)NNc1ccccc1	-2.23% [at 11.4 µM] (inactive)
COc1cccc([C@H]2Oc3ccc(OC)cc3/C(=N\OC[C@@H](O)[C@@H]3O[C@@H]4OC(C)(C)O[C@@H]4[C@H]3O)[C@@H]2O)c1	-20.5% [at 11.4 µM] (inactive)
COc1cccc([C@H]2Oc3ccc(OC)cc3/C(=N\O[C@@H]3O[C@H](COC(C)=O)[C@H](OC(C)=O)[C@H](OC(C)=O)[C@H]3OC(C)=O)[C@@H]2O)c1	-12.6% [at 11.4 µM] (inactive)
C=CC[C@@H]1C=C[C@@H](O/N=C\C[C@@H]2C=C[C@H](OC(C)=O)[C@H](COC(C)=O)O2)[C@@H](CO)O1	-4.4% [at 11.4 µM] (inactive)
CC(=O)OC[C@@H]1O[C@@H](O/N=C2/C[C@@H](O)[C@@H](O)[C@@H]3[C@@H]4C(=O)N(C[C@@H]5CCCO5)C(=O)[C@H]4CC[C@H]23)[C@H](OC(C)=O)[C@H](OC(C)=O)[C@@H]1OC(C)=O	5.35% [at 11.4 µM] (inactive)
CN(Cc1ccco1)c1ncncc1-c1ccoc1	-8.69% [at 2.29 µM] (inactive)
Nc1ccccc1C(=O)/C=C\c1ccc2c(c1)OCO2	-29.2% [at 11.4 µM] (inactive)
